Experimental Target: TRKA (440-796) (Homo sapiens)
Sequence (P04629 440-796): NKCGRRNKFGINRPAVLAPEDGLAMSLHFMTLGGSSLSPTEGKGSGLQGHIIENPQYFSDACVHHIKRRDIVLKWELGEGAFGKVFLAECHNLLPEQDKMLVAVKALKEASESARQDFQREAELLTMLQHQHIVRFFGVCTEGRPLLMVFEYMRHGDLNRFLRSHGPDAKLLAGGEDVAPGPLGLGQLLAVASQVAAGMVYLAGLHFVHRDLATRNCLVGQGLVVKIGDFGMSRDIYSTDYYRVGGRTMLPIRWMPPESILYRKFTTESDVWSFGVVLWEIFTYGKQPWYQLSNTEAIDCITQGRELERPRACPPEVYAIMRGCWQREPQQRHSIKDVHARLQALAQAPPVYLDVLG
Assay Protocol: Time-dependent intact protein mass
Attribute Measured: Ki (µM)
# output: bare number, implied unit µM

query: Report Ki on TRKA (440-796) (Homo sapiens) for this entry: "C#Cc1cc(-c2cc(Nc3nc(N[C@@H](C)c4ccc(F)cn4)ncc3Cl)n[nH]2)ccc1C=O"
result: 0.8

---

Experimental Target: TRKC (Homo sapiens)
Sequence (Q16288 32-839): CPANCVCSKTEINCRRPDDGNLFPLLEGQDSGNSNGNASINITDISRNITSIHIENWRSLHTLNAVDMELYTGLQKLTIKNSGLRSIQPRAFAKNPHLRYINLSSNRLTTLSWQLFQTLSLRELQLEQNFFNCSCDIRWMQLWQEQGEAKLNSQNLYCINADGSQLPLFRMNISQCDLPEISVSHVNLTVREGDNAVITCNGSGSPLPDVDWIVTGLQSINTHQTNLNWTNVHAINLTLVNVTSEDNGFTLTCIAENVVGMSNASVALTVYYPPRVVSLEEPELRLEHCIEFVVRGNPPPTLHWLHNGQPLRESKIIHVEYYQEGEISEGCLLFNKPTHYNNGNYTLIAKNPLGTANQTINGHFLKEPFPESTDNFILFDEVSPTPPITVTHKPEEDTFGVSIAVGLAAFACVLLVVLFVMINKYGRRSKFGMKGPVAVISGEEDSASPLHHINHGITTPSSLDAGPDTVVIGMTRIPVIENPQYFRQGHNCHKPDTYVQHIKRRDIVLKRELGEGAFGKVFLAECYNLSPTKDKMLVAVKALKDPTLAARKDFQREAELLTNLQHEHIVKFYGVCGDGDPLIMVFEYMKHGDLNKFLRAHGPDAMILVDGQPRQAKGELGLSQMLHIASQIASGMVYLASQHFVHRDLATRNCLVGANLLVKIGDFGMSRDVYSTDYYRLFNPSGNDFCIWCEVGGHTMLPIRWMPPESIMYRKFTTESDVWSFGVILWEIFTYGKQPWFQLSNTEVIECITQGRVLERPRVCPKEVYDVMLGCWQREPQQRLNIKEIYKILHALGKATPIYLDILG
Attribute Measured: pIC50
Reminder that pIC50 means the negative base-10 logarithm of the concentration expressed in mol/L.

query: Provide pIC50, system TRKC (Homo sapiens), entry C#Cc1cc(-c2cc(Nc3nc(N[C@@H](C)c4ccc(F)cn4)ncc3Cl)n[nH]2)ccc1C=O [Compound 7]
result: 8.72

---

Experimental Target: UniProtKB P04629
Attribute Measured: pIC50
# pIC50 is unitless: minus log10 of the molar concentration; print number only

query: Return pIC50 for the following molecule: "C#Cc1cc(-c2cc(Nc3nc(N[C@@H](C)c4ccc(F)cn4)ncc3Cl)n[nH]2)ccc1C=O"
result: 7.94

Ref: paper PMC12648285
